meta.source: the supplement of paper PMC12494721

- Tested on: Escherichia coli IAI1
- TEST_SUMMARY: fold change of Putrescine concentration vs plate DMSO controls (fold change (ratio)); higher = more amine produced, active = hit call of the paper (significant change in both replicates, either direction)
- RUN_CONDITIONS: incubation time: 27 h, anaerobic, 37 °C
Counter-ions that a name gives are not always drawn.
Below, each of the molecules is paired with its reported fold change of Putrescine concentration value.

MOLECULE: O=C(O)Cc1ccccc1Nc1c(Cl)cccc1Cl [Diclofenac sodium] (20 µM)
EXPERIMENTAL_TARGET: Escherichia coli IAI1
fold change of Putrescine concentration: 1.02
--
MOLECULE: CCOC(=O)[N-]c1c[n+](N2CCOCC2)no1 [Molsidomine] (20 µM)
EXPERIMENTAL_TARGET: Escherichia coli IAI1
fold change of Putrescine concentration: 0.994
--
MOLECULE: CN1CCN(C2=Nc3ccccc3Oc3ccc(Cl)cc32)CC1 [Loxapine succinate] (20 µM)
EXPERIMENTAL_TARGET: Escherichia coli IAI1
fold change of Putrescine concentration: 0.998
--
MOLECULE: Clc1ccc2c(c1)C(N1CCNCC1)=Nc1ccccc1O2 [Amoxapine] (20 µM)
EXPERIMENTAL_TARGET: Escherichia coli IAI1
fold change of Putrescine concentration: 0.994
--
MOLECULE: CCN(CC)CCOCCOC(=O)C(CC)(CC)c1ccccc1 [Oxeladin citrate] (20 µM)
EXPERIMENTAL_TARGET: Escherichia coli IAI1
fold change of Putrescine concentration: 1.01
--
MOLECULE: C#CCN(C)Cc1ccccc1 [Pargyline hydrochloride] (20 µM)
EXPERIMENTAL_TARGET: Escherichia coli IAI1
fold change of Putrescine concentration: 0.99
--
MOLECULE: CC(C)(C)NC(=O)[C@H]1CC[C@H]2[C@@H]3CC[C@H]4NC(=O)C=C[C@]4(C)[C@H]3CC[C@]12C [Finasteride] (20 µM)
EXPERIMENTAL_TARGET: Escherichia coli IAI1
fold change of Putrescine concentration: 0.983
--
MOLECULE: CCN(CC)CCOC(=O)C(c1ccccc1)c1ccccc1 [Adiphenine hydrochloride] (20 µM)
EXPERIMENTAL_TARGET: Escherichia coli IAI1
fold change of Putrescine concentration: 1
--
MOLECULE: CC(C)(S)C(N)C(=O)O (racemic) [D,L-Penicillamine] (20 µM)
EXPERIMENTAL_TARGET: Escherichia coli IAI1
fold change of Putrescine concentration: 0.99
--
MOLECULE: CC(C)NC[C@@H](O)COc1cccc2ccccc12 [(R) Propranolol hydrochloride] (20 µM)
EXPERIMENTAL_TARGET: Escherichia coli IAI1
fold change of Putrescine concentration: 0.979
--
MOLECULE: CCCNC(C)C(=O)Nc1ccccc1C (stereo not drawn) [Prilocaine hydrochloride] (20 µM)
EXPERIMENTAL_TARGET: Escherichia coli IAI1
fold change of Putrescine concentration: 1.01
--
MOLECULE: Oc1c(Cl)cc(Cl)c(Cl)c1Cc1c(O)c(Cl)cc(Cl)c1Cl [Hexachlorophene] (20 µM)
EXPERIMENTAL_TARGET: Escherichia coli IAI1
fold change of Putrescine concentration: 0.982
--
MOLECULE: COc1cnc(NS(=O)(=O)c2ccc(N)cc2)nc1 [Sulfameter] (20 µM)
EXPERIMENTAL_TARGET: Escherichia coli IAI1
fold change of Putrescine concentration: 1.01
